Let's look at some binders and their measured cAMP Rel. A (%) against human GIP, human GIP R cells.
Target: T1, human GIP receptor (human, UniProt P48546 22-466)
T1 sequence (looked up): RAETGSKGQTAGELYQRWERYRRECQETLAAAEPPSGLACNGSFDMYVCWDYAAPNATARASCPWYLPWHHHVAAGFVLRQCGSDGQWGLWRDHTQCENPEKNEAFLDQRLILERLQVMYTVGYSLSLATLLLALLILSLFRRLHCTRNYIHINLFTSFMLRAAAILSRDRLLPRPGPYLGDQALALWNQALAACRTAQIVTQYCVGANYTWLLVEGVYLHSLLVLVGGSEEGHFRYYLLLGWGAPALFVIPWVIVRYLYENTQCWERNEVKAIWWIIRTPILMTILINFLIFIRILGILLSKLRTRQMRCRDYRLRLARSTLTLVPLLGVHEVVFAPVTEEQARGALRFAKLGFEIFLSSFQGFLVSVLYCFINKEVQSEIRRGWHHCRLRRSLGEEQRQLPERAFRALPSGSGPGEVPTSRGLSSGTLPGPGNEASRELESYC
Assay: cell-based or functional assay
Number only, in %; omit the unit.

- YXQGTXTSDYSIXLDKKAQXAFIEFLLEGRPSSXHPPPS (Aib at 2; αMeF at 6; αMeL at 13; Lys 17 side chain AEEAc-AEEAc-γGlu-CO(CH2)18COOH; Aib at 20; Aib at 34; C-terminal amide (NH2)) [Compound 37]: 1210
- YXQGTXTSDYSIXLDKKAQXAFIEFLLEXHPSSGAPPXS (Aib at 2; αMeF(2F) at 6; αMeL at 13; Lys 17 side chain AEEAc-AEEAc-γGlu-CO(CH2)18COOH; Aib at 20; Aib at 29; Ac3c at 38; C-terminal amide (NH2)) [Compound 31]: 2010
- YXQGTXTSDYSIFLDKKAQXAFIEFLLETGPSSGAPPXS (Aib at 2; αMeF(2F) at 6; Lys 17 side chain AEEAc-AEEAc-γGlu-CO(CH2)18COOH; Aib at 20; Ac3c at 38; C-terminal amide (NH2)) [Compound 9]: 385
- YXQGTXTSDYSIFLDKKAQXAFIEYLLEXHPSSGAPPXS (Aib at 2; αMeF(2F) at 6; Lys 17 side chain AEEAc-AEEAc-γGlu-CO(CH2)18COOH; Aib at 20; Aib at 29; Ac3c at 38; C-terminal amide (NH2)) [Compound 32]: 1650
- YXQGTXTSDYSIXLDKKAQXAFIEYLLESHPSSGAPPXS (Aib at 2; αMeF at 6; αMeL at 13; Lys 17 side chain AEEAc-AEEAc-γGlu-CO(CH2)18COOH; Aib at 20; Ac3c at 38; C-terminal amide (NH2)) [Compound 3]: 754
- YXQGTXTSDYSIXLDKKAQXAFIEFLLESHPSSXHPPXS (Aib at 2; αMeF(2F) at 6; αMeL at 13; Lys 17 side chain AEEAc-AEEAc-γGlu-CO(CH2)18COOH; Aib at 20; Aib at 34; Ac3c at 38; C-terminal amide (NH2)) [Compound 40]: 151
- YXQGTXTSDYSILLDKKAQXAFIEFLLESHPSSXHPPXS (Aib at 2; αMeF at 6; Lys 17 side chain AEEAc-AEEAc-γGlu-CO(CH2)18COOH; Aib at 20; Aib at 34; Ac3c at 38; C-terminal amide (NH2)) [Compound 42]: 259
- YXQGTXTSDYSIXLDKKAQXAFIEYLLETGPSSGQPPPS (Aib at 2; αMeF(2F) at 6; αMeL at 13; Lys 17 side chain AEEAc-AEEAc-γGlu-CO(CH2)18COOH; Aib at 20; C-terminal amide (NH2)) [Compound 23]: 2590
- YXHGTXTSDYSIXLDKKAQXAFIEYLLEXHPSSGQPPPS (Aib at 2; αMeF(2F) at 6; αMeL at 13; Lys 17 side chain AEEAc-AEEAc-γGlu-CO(CH2)18COOH; Aib at 20; Aib at 29; C-terminal amide (NH2)) [Compound 6]: 1290
- YXQGTXTSDYSIXLDKKAQXAFIEFLLEGGPSSXHPPPS (Aib at 2; αMeF at 6; αMeL at 13; Lys 17 side chain AEEAc-AEEAc-γGlu-CO(CH2)18COOH; Aib at 20; Aib at 34; C-terminal amide (NH2)) [Compound 36]: 2590

Request: Record request: cAMP Rel. A (%) against human GIP, human GIP R cells value, item YXQGTXTSDYSIXLDKKAQXAFIEFLLESHPSSGAPPPS (Aib at 2; αMeF at 6; αMeL at 13; Lys 17 side chain AEEAc-AEEAc-γGlu-CO(CH2)18COOH; Aib at 20; C-terminal amide (NH2)) [Compound 26]
Response: 2590

Request: # input binder: YXQGTXTSDYSIFLDKKAQXAFIEFLLEGGPSSGAPPXS (Aib at 2; αMeF(2F) at 6; Lys 17 side chain AEEAc-AEEAc-γGlu-CO(CH2)18COOH; Aib at 20; Ac3c at 38; C-terminal amide (NH2)) [Compound 5] ; wanted: its cAMP Rel. A (%) against human GIP, human GIP R cells
Response: 369

Request: Quick one: cAMP Rel. A (%) against human GIP, human GIP R cells for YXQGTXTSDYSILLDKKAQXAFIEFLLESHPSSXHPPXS (Aib at 2; αMeF(2F) at 6; Lys 17 side chain AEEAc-AEEAc-γGlu-CO(CH2)18COOH; Aib at 20; Aib at 34; Ac3c at 38; C-terminal amide (NH2)) [Compound 41] ?
Response: 248
